These entries and their values trace back to PubChem BioAssay AID2060882.

Examples of compounds with documented viability, T/C follow.
test system: 898857-211-R-J1-PDC complex spheroids, growth % test/control; assay: Anticancer human tumor 898857-211-R-J1-PDC patient-derived melanoma cell line growth inhibition [RAS]; conditions: second compound 0.316 µM; first compound 0.000949 µM; hits give low values

compound	target_entity	viability, T/C [%]
CCc1c2c(nc3ccc(O)cc13)-c1cc3c(c(=O)n1C2)COC(=O)[C@]3(O)CC + C#Cc1c(F)ccc2cc(O)cc(-c3ncc4c(N5CC6CCC(C5)N6)nc(OCC56CCCN5CC(F)C6)nc4c3F)c12	898857-211-R-J1-PDC complex spheroids, growth % test/control	93
CC1(C)CCC(Nc2ncc(C(F)(F)F)c(-c3c[nH]c4c(P(C)(C)=O)c(C#N)ccc34)n2)CN1 (centres undefined) + C#Cc1c(F)ccc2cc(O)cc(-c3ncc4c(N5CC6CCC(C5)N6)nc(OCC56CCCN5CC(F)C6)nc4c3F)c12	898857-211-R-J1-PDC complex spheroids, growth % test/control	91.3
CC1(C)CCC(Nc2ncc(C(F)(F)F)c(-c3c[nH]c4c(P(C)(C)=O)c(C#N)ccc34)n2)CN1 (centres undefined) + C=CC(=O)N1CCN(c2nc(OCC3CCCN3C)nc3c(F)c(-c4nc(N)cc(C)c4C(F)(F)F)c(Cl)cc23)C(C)C1	898857-211-R-J1-PDC complex spheroids, growth % test/control	101
CCc1c2c(nc3ccc(O)cc13)-c1cc3c(c(=O)n1C2)COC(=O)[C@]3(O)CC + C=CC(=O)N1CCN(c2nc(OCC3CCCN3C)nc3c(F)c(-c4nc(N)cc(C)c4C(F)(F)F)c(Cl)cc23)C(C)C1	898857-211-R-J1-PDC complex spheroids, growth % test/control	98.4

---

Parameter viability, T/C: see the listing below.
system: 898857-211-R-J1-PDC complex spheroids, growth % test/control; assay: Anticancer human tumor 898857-211-R-J1-PDC cell line growth inhibition [RAS]; conditions: second compound 0.0316 µM; first compound 0.01 µM; hits give low values;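 further: spheroids exposed to compound for seven days before readout; 100% = DMSO vehicle control wells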

molecule	viability, T/C
C=CC(=O)N1CCN(c2nc(OCC3CCCN3C)nc3c(F)c(-c4nc(N)cc(C)c4C(F)(F)F)c(Cl)cc23)C(C)C1 (stereo not given) + C#Cc1c(F)ccc2cc(O)cc(-c3ncc4c(N5CC6CCC(C5)N6)nc(OCC56CCCN5CC(F)C6)nc4c3F)c12	92.9%
CCN1CCN(Cc2ccc(Nc3ncc(F)c(-c4cc(F)c5nc(C)n(C(C)C)c5c4)n3)nc2)CC1 + C=CC(=O)N1CCN(c2nc(OCC3CCCN3C)nc3c(F)c(-c4nc(N)cc(C)c4C(F)(F)F)c(Cl)cc23)C(C)C1	102%
O=C(c1ccc(F)c(F)c1Nc1ccc(I)cc1F)N1CC(O)([C@@H]2CCCCN2)C1 + C#Cc1c(F)ccc2cc(O)cc(-c3ncc4c(N5CC6CCC(C5)N6)nc(OCC56CCCN5CC(F)C6)nc4c3F)c12	35.3%
C=CC(=O)Nc1cc(Nc2nccc(-c3cn(C)c4ccccc34)n2)c(OC)cc1N(C)CCN(C)C + C#Cc1c(F)ccc2cc(O)cc(-c3ncc4c(N5CC6CCC(C5)N6)nc(OCC56CCCN5CC(F)C6)nc4c3F)c12	92.3%
CCN1CCN(Cc2ccc(Nc3ncc(F)c(-c4cc(F)c5nc(C)n(C(C)C)c5c4)n3)nc2)CC1 + C#Cc1c(F)ccc2cc(O)cc(-c3ncc4c(N5CC6CCC(C5)N6)nc(OCC56CCCN5CC(F)C6)nc4c3F)c12	87.4%
